Assay: Accelerated stability screening monitored by SEC
Assay type: physicochemical
Settings: SEC, start of stability study
Recorded Monomer (%) for the following molecules

Molecule	Monomer (%)
Hu2B5.3: humanized 2B5-8.0; VH SEQ ID NO 64, VL SEQ ID NO 65 (antibody, V domains shown) VH: EVQLVQSGAEVKKPGASVKVSCKASGYTFTKYWLGWVRQAPGQGLEWIGDIYPGYDYTHYNEKFKDRATLTVDTSTSTAYMELRSLRSDDTAVYYCARSDGSSTYWGQGTLVTVSS VL: DVLMTQTPLSLPVTPGEPASISCTSSQNIVHSNGNTYLEWYLQKPGQSPQLLIYKVSNRFSGVPDRFSGSGSGTDFTLKISRVEAEDVGVYYCFQVSHVPYTFGGGTKVEIKR	94.1987
Hu2B5.8: humanized 2B5-8.0; VH SEQ ID NO 74, VL SEQ ID NO 75 (antibody, V domains shown) VH: EVQLVQSGAEVKKPGASVKVSCKASGYTFTKYWLGWVRQAPGQGLEWMGDIYPGYDYTHYNEKFKDRVTLTTDTSTSTAYMELSSLRSDDTAVYYCARSDGSSTYWGQGTLVTVSS VL: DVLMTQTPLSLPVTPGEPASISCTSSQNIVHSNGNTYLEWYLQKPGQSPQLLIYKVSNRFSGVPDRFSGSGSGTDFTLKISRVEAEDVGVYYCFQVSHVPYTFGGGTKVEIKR	94.5969
Hu2B5.4: humanized 2B5-8.0; VH SEQ ID NO 66, VL SEQ ID NO 67 (antibody, V domains shown) VH: EVQLVQSGAEVKKPGASVKVSCKASGYTFTKYWLGWVRQAPGQGLEWIGDIYPGYDYTHYNEKFKDRATLTVDTSTSTAYMELSSLRSDDTAVYYCARSDGSSTYWGQGTLVTVSS VL: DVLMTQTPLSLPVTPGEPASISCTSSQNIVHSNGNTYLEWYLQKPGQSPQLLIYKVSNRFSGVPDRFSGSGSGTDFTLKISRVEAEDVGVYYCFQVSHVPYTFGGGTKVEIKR	94.5513
Hu2B5.2: humanized 2B5-8.0; VH SEQ ID NO 62, VL SEQ ID NO 63 (antibody, V domains shown) VH: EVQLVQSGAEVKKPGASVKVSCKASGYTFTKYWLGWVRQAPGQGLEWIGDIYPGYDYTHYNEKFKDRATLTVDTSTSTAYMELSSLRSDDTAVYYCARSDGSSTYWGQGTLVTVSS VL: DVVMTQTPLSLPVTPGEPASISCTSSQNIVHSNGNTYLEWYLQKPGQSPQLLIYKVSNRFSGVPDRFSGSGSGTDFTLKISRVEAEDVGVYYCFQVSHVPYTFGGGTKVEIKR	94.8516
Hu2B5.9: humanized 2B5-8.0; VH SEQ ID NO 76, VL SEQ ID NO 77 (antibody, V domains shown) VH: EVQLVQSGAEVKKPGASVKVSCKASGYTFTKYWLGWVRQAPGQGLEWMGDIYPGYDYTHYNEKFKDRVTMTTDTSTSTAYMELRSLRSDDTAVYYCARSDGSSTYWGQGTLVTVSS VL: DIVMTQTPLSLPVTPGEPASISCTSSQNIVHSNGNTYLEWYLQKPGQSPQLLIYKVSNRFSGVPDRFSGSGSGTDFTLKISRVEAEDVGVYYCFQVSHVPYTFGGGTKVEIKR	95.6031

// provenance: patent US8624002B2
